Documented composite z-score across a set of molecules
Target Of Assay: Calmodulin-1 (Homo sapiens) (UniProt P0DP23)
Procedure Summary: calcium-bound CALM1 binders on microarrays, profiling panel, artefact control for SMM control-protein annotation, biochemical, small-molecule microarray, Cy5-labelled CALM1, plus calcium (AID 1112);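 also: score merges spot fluorescence with signal to noise from triplicate slides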
Experimental Setup: Cy5-CALM1 binding fluorescence, higher = more signal

>  <Molecule>
CN(C)CCCC[C@@H]1NC(=O)[C@H]2C[C@@H](C(=O)NCCCCCCN)[C@@H](c3ccc(O)cc3)N2C1=O

>  <Target Of Assay>
Calmodulin-1 (Homo sapiens) (UniProt P0DP23)

>  <composite z-score>
0.921

$$$$
>  <Molecule>
O=C1C[C@@](C(=O)NCC(F)(F)F)(c2ccc([N+](=O)[O-])cc2)[C@@H](c2ccc(CO)cc2I)N1C1CCCCC1

>  <Target Of Assay>
Calmodulin-1 (Homo sapiens) (UniProt P0DP23)

>  <composite z-score>
0.074

$$$$
>  <Molecule>
C=CC[C@]1(C(=O)NCCCOC)N=C(c2ccc(OCCCO)cc2)O[C@H]1c1ccccc1CN=[N+]=[N-]

>  <Target Of Assay>
Calmodulin-1 (Homo sapiens) (UniProt P0DP23)

>  <composite z-score>
0.988

$$$$
>  <Molecule>
O=C1NC(=O)C2C1C=CC(C(O)c1cccs1)N2Nc1ccc(Cl)cc1Cl (stereo not drawn)

>  <Target Of Assay>
Calmodulin-1 (Homo sapiens) (UniProt P0DP23)

>  <composite z-score>
0.243

$$$$
>  <Molecule>
O=C1c2ccccc2[C@](Cc2ccccc2I)(C(=O)NCCN2CCOCC2)[C@H](c2ccc(CO)cc2)N1C1CCCCC1

>  <Target Of Assay>
Calmodulin-1 (Homo sapiens) (UniProt P0DP23)

>  <composite z-score>
0.315

$$$$
>  <Molecule>
COc1ccc([Si](C)(C)[C@@H]2[C@@H](CC(=O)N3CCC[C@H]3CO)O[C@]3(C(=O)N(c4ccccc4)c4ccccc43)[C@H]2C)cc1

>  <Target Of Assay>
Calmodulin-1 (Homo sapiens) (UniProt P0DP23)

>  <composite z-score>
-0.143

$$$$
>  <Molecule>
COc1ccc(C#Cc2ccc3c(c2)[C@]2(C(=O)N3)[C@H](c3ccccc3OCCO)N3[C@H](c4ccccc4)[C@H](c4ccccc4)OC(=O)[C@H]3[C@@H]2C(=O)Nc2nc3ccccc3s2)cc1

>  <Target Of Assay>
Calmodulin-1 (Homo sapiens) (UniProt P0DP23)

>  <composite z-score>
-0.104

$$$$
>  <Molecule>
O=C(NCCO)C1=C[C@H](Oc2ccccc2I)[C@@H](O)[C@H](N(Cc2ccco2)C(=O)Cc2ccccc2)C1

>  <Target Of Assay>
Calmodulin-1 (Homo sapiens) (UniProt P0DP23)

>  <composite z-score>
-0.671

$$$$
>  <Molecule>
CCCCC(CC)C(O)C1C=CC2C(=O)N(Cc3ccccc3)C(=O)C2N1n1cnnc1 (stereo not drawn)

>  <Target Of Assay>
Calmodulin-1 (Homo sapiens) (UniProt P0DP23)

>  <composite z-score>
-0.658

$$$$
>  <Molecule>
COCCOC(=O)N1C(=O)[C@@]2(c3cc(C#CCC(C(=O)OC)C(=O)OC)ccc31)[C@H](c1ccccc1OCCO)N1[C@H](c3ccccc3)[C@H](c3ccccc3)OC(=O)[C@H]1[C@@H]2C(=O)NC[C@H](O)c1ccccc1

>  <Target Of Assay>
Calmodulin-1 (Homo sapiens) (UniProt P0DP23)

>  <composite z-score>
0.277

$$$$
>  <Molecule>
COC(=O)C(CC#Cc1ccc2c(c1)[C@]1(C(=O)N2)[C@H](c2ccc(OCCO)cc2)N2[C@H](c3ccccc3)[C@H](c3ccccc3)OC(=O)[C@H]2[C@@H]1C(=O)Nc1nc2ccccc2s1)C(=O)OC

>  <Target Of Assay>
Calmodulin-1 (Homo sapiens) (UniProt P0DP23)

>  <composite z-score>
0.489

$$$$
>  <Molecule>
C=CCOC(=O)[C@H]1[C@@H]2C(=O)O[C@@H](c3ccccc3)[C@@H](c3ccccc3)N2[C@@H](c2ccc(OCCOC(=O)[C@H]3C[C@H]4C(=O)N[C@@H](CCCC[N+](C)(C)C)C(=O)N4[C@H]3c3ccc(O)cc3)cc2)[C@]12C(=O)Nc1ccc(I)cc12

>  <Target Of Assay>
Calmodulin-1 (Homo sapiens) (UniProt P0DP23)

>  <composite z-score>
-0.0782

$$$$
>  <Molecule>
C=CCC(OC(C)=O)[C@@H]1[C@@H](N(Cc2ccc(-c3ccccc3)cc2)C(=O)Cc2ccc(OC)cc2)c2cc(OCCCO)ccc2N1C(=O)Cc1ccc2ccccc2c1 (stereo partly drawn)

>  <Target Of Assay>
Calmodulin-1 (Homo sapiens) (UniProt P0DP23)

>  <composite z-score>
0.831

$$$$

---

Documented composite z-score across a set of compounds
Target Of Assay: Torsin-1A-interacting protein 1 (Homo sapiens) (UniProt Q5JTV8)
Sequence (Q5JTV8 whole entry, looked up): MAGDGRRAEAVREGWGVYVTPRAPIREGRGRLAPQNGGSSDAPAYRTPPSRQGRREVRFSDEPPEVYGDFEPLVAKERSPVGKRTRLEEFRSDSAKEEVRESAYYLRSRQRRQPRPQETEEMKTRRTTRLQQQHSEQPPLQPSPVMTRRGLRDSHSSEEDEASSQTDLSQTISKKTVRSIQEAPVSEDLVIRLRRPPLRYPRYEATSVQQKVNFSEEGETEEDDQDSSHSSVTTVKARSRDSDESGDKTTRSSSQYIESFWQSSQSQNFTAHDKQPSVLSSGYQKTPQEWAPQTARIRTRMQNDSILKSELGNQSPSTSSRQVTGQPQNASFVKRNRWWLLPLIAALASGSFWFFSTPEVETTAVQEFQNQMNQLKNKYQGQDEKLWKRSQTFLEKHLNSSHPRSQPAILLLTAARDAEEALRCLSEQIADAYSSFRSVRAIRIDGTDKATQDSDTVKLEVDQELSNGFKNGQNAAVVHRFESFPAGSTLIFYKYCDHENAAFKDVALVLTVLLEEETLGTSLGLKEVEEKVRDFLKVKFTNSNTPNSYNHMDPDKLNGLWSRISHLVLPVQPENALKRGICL
Procedure Summary: LAP1 binders from COS7 cell lysate, primary screen, small-molecule microarray, 635/667 nm fluorescence (AID 1116)
Experimental Setup: COS7-hLAP1 lysate binding, 635 nm fluorescence, higher = more signal

>  <Compound>
NC(=O)NCC#Cc1ccc2c(c1)[C@]1(C(=O)N2)[C@H](C(=O)Nc2nc3ccccc3s2)[C@H]2C(=O)O[C@H](c3ccccc3)[C@H](c3ccccc3)N2[C@@H]1c1ccccc1OCCO

>  <composite z-score>
-0.638

$$$$
>  <Compound>
C[N+](C)(C)CCCCNC(=O)[C@H]1C[C@H]2C(=O)N3CCC[C@H]3C(=O)N2[C@H]1c1cccc(OCCO)c1

>  <composite z-score>
0.854

$$$$
>  <Compound>
CCC(CC)C(O)C1C=CC2C(=O)NC(=O)C2N1Nc1ccc(Cl)cc1Cl (stereo not given)

>  <composite z-score>
0.247

$$$$
>  <Compound>
CC1CC/C=C\[C@H]2OC34C=CCN(C(C)(C)C)C(=O)[C@H]3N(C(C)CO)C(=O)[C@@H]4C2C(=O)O1 (stereo not given in full)

>  <composite z-score>
-0.23

$$$$
>  <Compound>
C=CCC(OC(C)=O)[C@@H]1[C@@H](N(Cc2ccc(-c3cccc(C(F)(F)F)c3)o2)C(=O)c2ccc(C)cc2)c2cc(OCCCO)ccc2N1C(=O)Cc1ccc2ccccc2c1 (stereo not given in full)

>  <composite z-score>
-0.127

$$$$
>  <Compound>
NC(=O)NCC#Cc1ccc2c(c1)[C@]1(C(=O)N2)[C@H](c2ccc(O)cc2)N2[C@H](c3ccccc3)[C@H](c3ccccc3)OC(=O)[C@H]2[C@@H]1C(=O)O

>  <composite z-score>
-0.354

$$$$
>  <Compound>
C=C(C)[C@@H]1CC=C(C(O)C2C=CC3C(=O)N(C)C(=O)C3N2Nc2ccccc2)CC1 (stereo not given in full)

>  <composite z-score>
0.296

$$$$
>  <Compound>
COC(=O)c1c(CC[C@@H](CO)NC(=O)NCCn2cc(C3(O)CCCC3)nn2)oc(C(C)=O)c1C(=O)OC

>  <composite z-score>
0.331

$$$$
>  <Compound>
COc1ccccc1CN1C(=O)c2ccccc2[C@@H](C(=O)NC2CC2)[C@@H]1c1ccc(CO)cc1

>  <composite z-score>
0.0469

$$$$
>  <Compound>
[N-]=[N+]=NCc1ccccc1[C@@H]1OC(c2ccc(OCCCO)cc2)=N[C@]1(Cc1ccccc1)C(=O)NCC(O)CO (stereo not given in full)

>  <composite z-score>
1.95

$$$$
>  <Compound>
C#C[C@H](O[Si](C#Cc1ccc(Oc2ccccc2)cc1)(C(C)C)C(C)C)c1ccccc1

>  <composite z-score>
0.692

$$$$
>  <Compound>
Cc1ccccc1C(O)C1C=CC2C(=O)N(c3ccccc3)C(=O)C2N1Nc1ccc(C(C)C)cc1 (stereo not given)

>  <composite z-score>
0.0331

$$$$
>  <Compound>
C=CC1(C(=O)OC)CC=C(C(=O)OC)CC1 (stereo not given)

>  <composite z-score>
1.1

$$$$
>  <Compound>
CN(C)CCCC[C@@H]1NC(=O)[C@@H]2C[C@H](C(=O)NCCCCCCN)[C@H](c3cccc(OCCO)c3)N2C1=O

>  <composite z-score>
2.88

$$$$
>  <Compound>
C=CCC(OC(C)=O)[C@@H]1[C@@H](N(Cc2ccc(-c3ccccc3)cc2)C(=O)c2ccc(-c3ccccc3)cc2)c2cc(OCCCO)ccc2N1C(=O)Cc1ccc2ccccc2c1 (stereo not given in full)

>  <composite z-score>
0.359

$$$$
>  <Compound>
COC(=O)[C@@]1(Cc2ccccc2)[C@H]2c3cc(C(=O)N4CCCC4)n(Cc4ccc(S(C)(=O)=O)cc4)c3C[C@H]2CN1C(=O)c1ccccc1

>  <composite z-score>
1.86

$$$$
>  <Compound>
COc1ccc(-c2cc3c(c(-c4ccc(Oc5ccccc5)cc4)n2)[Si](C(C)C)(C(C)C)OC3)cn1

>  <composite z-score>
-0.286

$$$$
>  <Compound>
COc1cc(C(O)C2C=CC3C(=O)NC(=O)C3N2Nc2ccccn2)cc(OC)c1OC (stereo not given)

>  <composite z-score>
0.531

$$$$
>  <Compound>
CCCC#C[Si](O[C@H](CC)c1cn(Cc2cccc(Cl)c2)nn1)(C(C)C)C(C)C

>  <composite z-score>
0.545

$$$$
>  <Compound>
Cc1nc2cc(Br)ccc2c(=O)o1

>  <composite z-score>
0.197

$$$$
>  <Compound>
C=CCNC(=O)[C@H]1[C@@H]2C(=O)O[C@@H](c3ccccc3)[C@@H](c3ccccc3)N2[C@@H](c2ccccc2OCCO)[C@]12C(=O)Nc1ccc(C#CCC(C(=O)OC)C(=O)OC)cc12

>  <composite z-score>
1.37

$$$$
>  <Compound>
CCCC=C(CCC)[C@@H](NC(=O)c1cccs1)c1ccc(C(F)(F)F)cc1

>  <composite z-score>
1.27

$$$$
>  <Compound>
CC(C)NC(=O)[C@@H]1c2ccccc2C(=O)N(C2Cc3ccccc3C2)[C@H]1c1ccc(CO)cc1

>  <composite z-score>
0.724

$$$$
>  <Compound>
COc1ccc(C#Cc2ccc3c(c2)[C@]2(C(=O)N3)[C@H](c3ccccc3OCCO)N3[C@H](c4ccccc4)[C@H](c4ccccc4)OC(=O)[C@H]3[C@@H]2C(=O)Nc2nc3ccccc3s2)cc1

>  <composite z-score>
0.307

$$$$
>  <Compound>
C=CCNC(=O)[C@@H]1[C@H]2C(=O)O[C@H](c3ccccc3)[C@H](c3ccccc3)N2[C@H](c2ccccc2OCCO)[C@@]12C(=O)N(C(=O)OCCOC)c1ccccc12

>  <composite z-score>
0.784

$$$$
